Tested on: MDA-MB-231 breast
assay_comment: NCI tumour cell line growth inhibition, 48 h
measured_quantity: TGI (µM)
Output spec: scalar in µM, unitless text.

Q: Sample O=C(Nc1ccc(Br)cc1F)c1cc(Cl)ccc1O — what was its TGI?
Result: 5.23

Q: Consider the compound shown here: O=c1c(F)cn(Cc2ccc(C34CC5CC(CC(C5)C3)C4)c(O)c2)c(=O)n1Cc1ccc(C23CC4CC(CC(C4)C2)C3)c(O)c1 What is its recorded TGI?
Result: 24.8

Q: Which TGI is reported for this compound? CC1(C)OC2C(CO[Si](C)(C)C(C)(C)C)OC(n3c(I)c(C#C[Si](C)(C)C)c(=O)[nH]c3=O)C2O1 (configuration not stated)
Result: 17

Q: Which TGI is listed for COC1=CC(=O)c2c(c(-c3nc(C)cs3)cn2C)C1=O ?
Result: 72.6

Q: Dear colleague, I am looking for the recorded TGI of the following compound: Cc1cccc(C)c1NC(=O)C(Cc1c[nH]c2ccccc12)NC(=O)OCc1ccccc1 (configuration not stated)
Result: 48.2

Q: // returns reported TGI for input CC(=O)ON1CCCC(P(=O)(OCCSC(=O)C(C)(C)C)OCCSC(=O)C(C)(C)C)C1=O (configuration not stated)
Result: 87.8

Q: Please look up its TGI: Oc1cc(Cl)cc2cccnc12
Result: 39.7

Q: Value lookup for TGI; key = N=c1c2c(-c3ccccc3)c(-c3ccccc3)n(Cc3ccccc3)c2ncn1C1CCC(O)CC1 (configuration not stated)
Result: 4.65

Q: What TGI value was documented for this compound, COc1cc(Cl)cc(-c2nn(-c3cccc(NC(=O)c4ccc(N5CCOCC5)c(C(F)(F)F)c4)c3)cc2-c2ccncc2)c1 ?
Result: 32.4

---

System: RXF 393 renal
assay_comment: NCI tumour cell line growth inhibition, 48 h; in the data active means GI50 below about 0.43 µM; inactive means the rest
Use one of these outcomes when replying: Y for active, N for inactive

Q: Record request — test call for C[C@@H]1C[C@@H]([C@@H](CC2CC(=O)NC(=O)C2)OC(=O)CC(=O)c2ccccc2)C(=O)[C@@H](C)C1
Result: N

Q: Assay outcome for NC1CCN(Cc2ccccc2)CC1 : what was it?
Result: N

Q: Name the outcome recorded for COc1cc(N=Nc2ccc(O)c3ncccc23)c2ncccc2c1 in the assay.
Result: N

Q: Test call, this compound: N=c1c2c(-c3ccccc3)c(-c3ccccc3)n(Cc3ccccc3)c2ncn1C1CCC(O)CC1 (stereo unspecified)
Result: Y

Q: Any idea what this test logged for Nc1ncn([C@@H]2O[C@H](CO)[C@@H](O)[C@H]2O)c(=O)n1 ?
Result: Y

Q: Which outcome did this test record for the compound COc1cc(C(=O)N2CCN(C(=O)c3cc(OC)c(OC)c(OC)c3)C2=S)cc(OC)c1OC ?
Result: N

Q: So what was the verdict on COc1cnc2c(c1)C(=O)c1c-2n(CCCN2CCOCC2)c(=O)c2cc(Cl)ccc12 in this test?
Result: Y

Q: // return assay outcome for NC(=O)c1c(NC(=O)c2ccccc2)sc2c1CCC(=O)C2
Result: N

Q: // param item: O=C(Nc1ccc(Br)cc1F)c1cc(Cl)ccc1O ; yields the recorded call
Result: N

Q: Called result for CC(=O)Nc1ccc(-c2csc(Nc3cccc(-c4csc(C)n4)c3)n2)cc1
Result: N

Q: I would be grateful if you could indicate the recorded call for S=c1[nH]c(=S)c2cc3ccccc3nc2[nH]1 .
Result: N

Q: Test call, this compound: COc1ccc(-c2ccc(=O)oc2C#Cc2cc(OC)c(OC)c(OC)c2)cc1O
Result: Y

Q: Write down the call the test reported for this compound. Item: Clc1cc2c(c(CSc3nc4ccccc4n4cccc34)c1)OCOC2
Result: N

Q: For CN(C)CC[C@H](CSc1ccccc1)Nc1ccc(S(=O)(=O)NC(=O)c2ccc(N3CCN(Cc4ccccc4-c4ccc(Cl)cc4)CC3)cc2)cc1[N+](=O)[O-] , what call appears in the results of this test?
Result: N

Q: Write down the call the test reported for this compound. Item: COc1cc(N(CCC#N)CCC#N)ccc1/C(N=Nc1ccc(Cl)cc1)=N/NC(=O)c1cc(Br)ccc1O
Result: N

Q: Test call for this compound, please: Cc1nnc(Nc2ccc(NC(=O)Nc3ccc(Cl)cc3)cc2)c2ccccc12
Result: N
